Data origin, for the record: BindingDB's records for doi:10.1021/acs.jmedchem.8b01719

- Assay Remarks: Inhibition of HCV genotype 1b wild-type NS5B RNA dependent RNA polymerase infected in human HuH7 Lunet replicon cells assessed as reduction in viral replication after 48 hrs by steady-glo luciferase reporter gene assay
I'd be grateful if you could share measured pEC50 for these entries.
# pEC50: negative log10 of molar concentration; output just the value

Quick one: pEC50 of CNC(=O)c1c(-c2ccc(F)cc2)oc2cc(N(c3ccc(B(O)O)c(C(F)(F)F)c3)S(C)(=O)=O)c(C3CC3)cc12 ?
8.40

Moving on to CNC(=O)c1c(-c2ccc(F)cc2)oc2cc(-n3nc(C)nc3-c3ccc(B(O)O)c(F)c3)c(C3CC3)cc12
7.89

Moving on to CNC(=O)c1c(-c2ccc(F)cc2)oc2cc(N3C(=O)OCC3c3ccc(B(O)O)cc3)c(C3CC3)cc12 (centres undefined)
7.80

Moving on to CNC(=O)c1c(-c2ccc(F)cc2)oc2cc(-n3nccc3-c3ccc(B(O)O)c(F)c3)c(C3CC3)cc12
8.40

====

- Assay Remarks: Inhibition of HCV genotype 1a wild-type NS5B RNA dependent RNA polymerase transfected in human HuH7 Lunet replicon cells assessed as reduction in viral replication after 3 days by steady-glo luciferase reporter gene assay
I'd be grateful if you could share measured pEC50 for these entries.
# pEC50: negative log10 of molar concentration; output just the value

Quick one: pEC50 of CNC(=O)c1c(-c2ccc(F)cc2)oc2cc(-c3ncoc3-c3ccc(B(O)O)c(F)c3)c(C3CC3)cc12 ?
8.47

Moving on to CNC(=O)c1c(-c2ccc(F)cc2)oc2cc(N3C(=O)OCCC3c3ccc(B(O)O)cc3)c(C3CC3)cc12 (stereo not given)
7.25

Moving on to CNC(=O)c1c(-c2ccc(F)cc2)oc2cc(N(c3ccc(B(O)O)c(Cl)c3)S(C)(=O)=O)c(C3CC3)cc12
8.92

Moving on to CNC(=O)c1c(-c2ccc(F)cc2)oc2cc(N(C3CCc4c(B(O)O)cccc43)S(C)(=O)=O)c(C3CC3)cc12 (stereo not given)
7.96

Moving on to CNC(=O)c1c(-c2ccc(F)cc2)oc2cc(N3C(=O)OCC3c3ccc(B(O)O)cc3)c(C3CC3)cc12 (stereo not given)
8.08

====

I'd be grateful if you could share measured pEC50 for these entries.
- Assay Remarks: Inhibition of HCV genotype 1b wild-type NS5B RNA dependent RNA polymerase infected in human HuH7 Lunet replicon cells assessed as reduction in viral replication after 48 hrs by steady-glo luciferase reporter gene assay
# pEC50: negative log10 of molar concentration; output just the value

Quick one: pEC50 of CNC(=O)c1c(-c2ccc(F)cc2)oc2cc(-c3ncnn3-c3ccc(B(O)O)c(F)c3)c(C3CC3)cc12 ?
8.70

Moving on to CNC(=O)c1c(-c2ccc(F)cc2)oc2cc(N3C(=O)OCC3c3cccc(B(O)O)c3)c(C3CC3)cc12 (stereo not drawn)
7.00

Moving on to CNC(=O)c1c(-c2ccc(F)cc2)oc2cc(N(C3CCc4cc(B(O)O)ccc43)S(C)(=O)=O)c(C3CC3)cc12 (stereo not drawn)
7.30

Moving on to CNC(=O)c1c(-c2ccc(F)cc2)oc2cc(N(c3ccc(B(O)O)cc3)S(C)(=O)=O)c(C3CC3)cc12
8.60

Moving on to CNC(=O)c1c(-c2ccc(F)cc2)oc2cc(N(c3cc(Cl)c4c(c3)COB4O)S(C)(=O)=O)c(C3CC3)cc12
8.60

Moving on to CNC(=O)c1c(-c2ccc(F)cc2)oc2cc(-n3ncnc3-c3ccc(B(O)O)c(F)c3)c(C3CC3)cc12
8.70

Moving on to CNC(=O)c1c(-c2ccc(F)cc2)oc2cc(N3C(=O)OC[C@H]3c3ccc(B(O)O)c(F)c3)c(C3CC3)cc12
6.70

Moving on to CNC(=O)c1c(-c2ccc(F)cc2)oc2cc(N(C3CCCc4cc(B(O)O)ccc43)S(C)(=O)=O)c(C3CC3)cc12 (stereo not drawn)
7.00
